assayedTarget: T1, zCON9_D
T1 chain: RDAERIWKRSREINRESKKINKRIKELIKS
assayComment: two-hybrid library CCmax;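 further: natural log of median RNA to DNA barcode read ratio; higher means stronger binding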
measurementConditions: mean of both orientations
Let's look at some binders and their measured interaction score.

Would you please look over these solved cases?
Which interaction score is listed for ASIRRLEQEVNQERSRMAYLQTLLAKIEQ [4H_BCR] ?
-1.5

Same again, this time with DKIAALKAKNAALKAKNAALKAKIAALKG [P2-AA]
-2.05

Same again, this time with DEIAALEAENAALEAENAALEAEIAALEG [P1-AA]
-2.59

Okay, next one:
Which interaction score is listed for DKNAALKAKIAALKAKIAALKAENAALEG [P12-AA] ?
-2.06
